experimental_system: Phosphatidylinositol 4,5-bisphosphate 3-kinase catalytic subunit alpha isoform (Homo sapiens, UniProt P42336)
Sequence (P42336 whole entry, canonical isoform): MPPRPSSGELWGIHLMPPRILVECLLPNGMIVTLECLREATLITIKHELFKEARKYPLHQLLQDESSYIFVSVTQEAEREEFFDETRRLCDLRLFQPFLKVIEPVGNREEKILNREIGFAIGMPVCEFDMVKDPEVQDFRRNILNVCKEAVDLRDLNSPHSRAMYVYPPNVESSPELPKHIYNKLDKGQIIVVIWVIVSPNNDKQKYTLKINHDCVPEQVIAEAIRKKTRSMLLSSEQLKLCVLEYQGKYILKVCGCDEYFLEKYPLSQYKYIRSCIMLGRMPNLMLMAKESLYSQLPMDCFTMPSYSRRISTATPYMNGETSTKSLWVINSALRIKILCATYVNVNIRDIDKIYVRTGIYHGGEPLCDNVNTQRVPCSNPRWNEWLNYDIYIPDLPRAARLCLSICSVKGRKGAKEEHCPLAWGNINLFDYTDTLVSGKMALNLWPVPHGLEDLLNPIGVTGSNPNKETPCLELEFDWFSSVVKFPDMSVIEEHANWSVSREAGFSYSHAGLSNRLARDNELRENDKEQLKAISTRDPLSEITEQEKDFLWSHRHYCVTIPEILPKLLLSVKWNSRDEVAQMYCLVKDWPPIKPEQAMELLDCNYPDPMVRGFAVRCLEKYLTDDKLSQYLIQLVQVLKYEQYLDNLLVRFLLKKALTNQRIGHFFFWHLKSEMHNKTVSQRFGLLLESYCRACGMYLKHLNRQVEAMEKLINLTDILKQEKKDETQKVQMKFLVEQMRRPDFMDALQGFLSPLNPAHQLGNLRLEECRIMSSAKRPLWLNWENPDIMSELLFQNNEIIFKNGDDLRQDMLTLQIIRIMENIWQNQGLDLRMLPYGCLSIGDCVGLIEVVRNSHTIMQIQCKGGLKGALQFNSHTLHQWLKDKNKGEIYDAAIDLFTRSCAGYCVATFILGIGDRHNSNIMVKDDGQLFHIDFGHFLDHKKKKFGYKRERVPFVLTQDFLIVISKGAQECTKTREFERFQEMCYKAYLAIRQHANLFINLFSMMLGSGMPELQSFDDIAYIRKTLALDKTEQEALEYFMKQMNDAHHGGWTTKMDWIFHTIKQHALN
assay_method_text: Inhibition of PI3Kalpha (unknown origin)
pKi: −log10 of the molar value.
attribute_measured: pKi

1) O=P(O)(O)[C@H]1C2CCC(CC2)[C@@H]1Nc1nc(-c2c[nH]c3ncc(F)cc23)ncc1F (mixture of isomers)	< 5.40
2) CS(=O)(=O)[C@H]1C2CCC(CC2)[C@@H]1Nc1nc(-c2c[nH]c3ncc(F)cc23)ncc1F (mixture of isomers)	< 5.40
3) CNC(=O)[C@H]1C2CCC(CC2)[C@@H]1Nc1nc(-c2c[nH]c3ncc(F)cc23)ncc1F (mixture of isomers)	< 5.40
4) O=P(O)(O)CC[C@H]1C2CCC(CC2)[C@@H]1Nc1nc(-c2c[nH]c3ncc(F)cc23)ncc1F (mixture of isomers)	6.07
